Molecular target: T1, EsCas13d, nuclease-dead (Eubacterium siraeum, UniProt B0MS50, R295A;H300A;R849A;H854A)
T1 sequence: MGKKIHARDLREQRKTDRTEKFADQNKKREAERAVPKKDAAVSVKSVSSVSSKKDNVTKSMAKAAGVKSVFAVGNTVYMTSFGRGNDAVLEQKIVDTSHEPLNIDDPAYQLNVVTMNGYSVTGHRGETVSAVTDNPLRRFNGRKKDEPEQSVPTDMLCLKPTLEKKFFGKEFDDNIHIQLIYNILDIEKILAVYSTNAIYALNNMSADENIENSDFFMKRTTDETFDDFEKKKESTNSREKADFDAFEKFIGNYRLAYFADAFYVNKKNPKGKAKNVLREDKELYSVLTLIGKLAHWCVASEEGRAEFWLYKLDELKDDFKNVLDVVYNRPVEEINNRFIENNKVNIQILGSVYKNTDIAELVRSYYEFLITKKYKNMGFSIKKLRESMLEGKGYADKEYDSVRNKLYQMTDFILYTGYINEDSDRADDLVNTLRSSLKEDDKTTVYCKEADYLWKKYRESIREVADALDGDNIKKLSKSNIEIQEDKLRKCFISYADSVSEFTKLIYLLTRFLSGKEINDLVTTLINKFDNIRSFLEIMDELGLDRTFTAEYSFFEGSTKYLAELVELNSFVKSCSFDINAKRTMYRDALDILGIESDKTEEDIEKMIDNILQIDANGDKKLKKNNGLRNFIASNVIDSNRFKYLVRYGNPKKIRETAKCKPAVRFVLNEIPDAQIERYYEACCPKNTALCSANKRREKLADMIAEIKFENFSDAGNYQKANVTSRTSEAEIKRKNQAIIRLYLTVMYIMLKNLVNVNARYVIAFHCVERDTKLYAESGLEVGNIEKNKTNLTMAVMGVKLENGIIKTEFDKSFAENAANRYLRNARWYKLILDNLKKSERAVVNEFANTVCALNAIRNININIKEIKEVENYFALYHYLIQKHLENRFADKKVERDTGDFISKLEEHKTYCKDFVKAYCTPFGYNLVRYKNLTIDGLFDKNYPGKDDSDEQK
Assay: crRNA (strand 1, pre-loaded); Mg2+; 40 mM Tris-HCl pH 7.5, 150 mM NaCl, 6 mM MgCl2, 1 mM DTT, 0.1% Tween-20, 0.2 mg/ml BSA; 25 C; 10 min per concentration, then washed
Details: tags: His6-TwinStrep-SUMO cleaved; N-terminal SNAP kept (SNAP-Surface 488); label: 3' end held by stalled T7 RNA polymerase
recorded_metric: log10 of Kd (log10 of the value in nM)
Response schema: value (number) is log10 of Kd in units of nM.

binder: target 1 insC 3' of 9,insG 3' of 9 (mixed) RNA 1: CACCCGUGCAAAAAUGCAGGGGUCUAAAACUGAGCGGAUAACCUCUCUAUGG RNA 2: GGGAAUGGAUCCACAUCUACGAAUUCGUACCAUAGAGAGGUUACGUCCGCUCACCGAGAUCGGAAGAGCACACGU
assay_value: 1.27

binder: target 3 G4U,A9G (mixed) RNA 1: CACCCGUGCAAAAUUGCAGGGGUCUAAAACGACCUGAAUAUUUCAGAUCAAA RNA 2: GGGAAUGGAUCCACAUCUACGAAUUCGUUUUUGAUCUGAAAUGUUCAUGUCUGCAGAUCGGAAGAGCACACGU
assay_value: 1.57

binder: target 1 complement block 3-7 (mixed) RNA 1: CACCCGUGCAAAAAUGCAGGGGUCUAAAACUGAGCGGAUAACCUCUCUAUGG RNA 2: GGGAAUGGAUCCACAUCUACGAAUUCGUACCAUAGAGAGGUUAUGGCGACACCGAGAUCGGAAGAGCACACGU
assay_value: 1.11

binder: target 3 U2G,G4C (mixed) RNA 1: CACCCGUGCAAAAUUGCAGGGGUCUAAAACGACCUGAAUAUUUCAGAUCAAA RNA 2: GGGAAUGGAUCCACAUCUACGAAUUCGUUUUUGAUCUGAAAUAUUCACGGCUGCAGAUCGGAAGAGCACACGU
assay_value: 0.56

binder: target 1 insC 3' of 20,insA 3' of 12 (mixed) RNA 1: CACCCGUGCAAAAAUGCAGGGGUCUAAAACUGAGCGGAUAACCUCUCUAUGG RNA 2: GGGAAUGGAUCCACAUCUACGAAUUCGUACCACUAGAGAGGAUUAUCCGCUCACCGAGAUCGGAAGAGCACACGU
assay_value: 0.95

Return reported log10 of Kd; argument: target 2 MT 5'PFS AUA 3'PFS ACA (mixed) RNA 1: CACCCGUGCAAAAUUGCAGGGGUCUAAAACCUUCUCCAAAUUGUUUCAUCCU RNA 2: GGGAAUGGAUCCACAUCUACGAAUUCAUAAGGAUGAAACAAUUUGGAGAAGACAAGAUCGGAAGAGCACACGU
0.84

Return reported log10 of Kd; argument: target 3 insU 3' of 22,insC 3' of 19 (mixed) RNA 1: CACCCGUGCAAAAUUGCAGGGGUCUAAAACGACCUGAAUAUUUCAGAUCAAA RNA 2: GGGAAUGGAUCCACAUCUACGAAUUCGUUUUUUGCAUCUGAAAUAUUCAGGUCUGCAGAUCGGAAGAGCACACGU
1.78

Return reported log10 of Kd; argument: target 1 MT 5'PFS GGG 3'PFS CUU (mixed) RNA 1: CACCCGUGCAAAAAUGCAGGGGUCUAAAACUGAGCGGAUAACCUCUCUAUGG RNA 2: GGGAAUGGAUCCACAUCUACGAAUUCGGGCCAUAGAGAGGUUAUCCGCUCACUUAGAUCGGAAGAGCACACGU
1.39
